target: UniProt:P0AD68; assay: Bocillin-FL fluorescence polarization competition binding, E. coli PBP3
Sequence (P0AD68 1-577): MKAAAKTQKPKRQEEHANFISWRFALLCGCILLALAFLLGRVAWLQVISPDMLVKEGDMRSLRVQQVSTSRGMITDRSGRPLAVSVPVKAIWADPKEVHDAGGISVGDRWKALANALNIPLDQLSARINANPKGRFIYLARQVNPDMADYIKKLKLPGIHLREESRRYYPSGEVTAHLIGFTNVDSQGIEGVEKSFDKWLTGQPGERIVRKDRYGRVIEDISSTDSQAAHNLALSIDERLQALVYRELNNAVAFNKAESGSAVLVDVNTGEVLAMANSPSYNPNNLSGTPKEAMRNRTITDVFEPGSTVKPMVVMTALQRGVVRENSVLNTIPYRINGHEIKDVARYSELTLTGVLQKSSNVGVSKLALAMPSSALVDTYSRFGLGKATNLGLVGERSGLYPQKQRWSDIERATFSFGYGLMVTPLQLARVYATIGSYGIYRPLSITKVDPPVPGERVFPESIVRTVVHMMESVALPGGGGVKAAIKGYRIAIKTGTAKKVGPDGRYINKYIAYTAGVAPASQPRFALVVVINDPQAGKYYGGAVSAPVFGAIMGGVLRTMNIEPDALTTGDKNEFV
Reported EC50 by item:

In the examples that follow, each entry is paired with its recorded EC50.
MOLECULE	TARGET_DESC	REPORTED_ENDPOINT	RESULT
O=C(NCCCS(=O)(=O)N1CCN(C(=O)N[C@@H](C(=O)N[C@H]2Cc3ccc(F)c(C(=O)O)c3OB2O)c2cc(F)c(O)c(O)c2Cl)C1=O)c1cccc(O)c1 [Example 271]	UniProt:P0AD68	EC50	< 10 µM
CS(=O)(=O)N1CCC[C@@H]1C(=O)N[C@H](C(=O)N[C@H]1Cc2cccc(C(=O)O)c2OB1O)c1ccc(P(=O)(O)O)cc1 [Example 34]	UniProt:P0AD68	EC50	50 to 250 µM
O=C(NCCCN1CCN(C(=O)NC(C(=O)N[C@H]2Cc3ccc(F)c(C(=O)O)c3OB2O)c2cc(F)c(O)c(O)c2Cl)C(=O)C1=O)Nc1cccc(O)c1 (stereo partly shown) [Example 206]	UniProt:P0AD68	EC50	< 10 µM
CC(=O)N1CCC[C@@H]1C(=O)N[C@H](C(=O)N[C@H]1Cc2cccc(C(=O)O)c2OB1O)c1ccc(P(=O)(O)O)cc1 [Example 33]	UniProt:P0AD68	EC50	50 to 250 µM

// O=C(NCCCS(=O)(=O)N1CCN(C(=O)NC(C(=O)N[C@H]2Cc3ccc(F)c(C(=O)O)c3OB2O)c2cc(F)c(O)c(O)c2Cl)C1=O)c1ccc(O)cc1 (stereo partly shown) [Example 269] : EC50 value = < 10 µM

EC50 recorded for this molecule, O=C(NCCCN1CCN(C(=O)N[C@@H](C(=O)N[C@H]2Cc3ccc(F)c(C(=O)O)c3OB2O)c2cc(F)c(O)c(O)c2Cl)C(=O)C1=O)c1cccnc1 [Example 210] , is < 10 µM

Recorded result, CCN1CCN(C(=O)NC(C(=O)N[C@H]2Cc3cccc(C(=O)O)c3OB2O)c2ccc(CP(=O)(O)O)cc2)C(=O)C1=O (stereo partly shown) [Example 20] , EC50: < 10 µM

Cn1cccc(C(=O)N[C@H](C(=O)N[C@H]2Cc3cccc(C(=O)O)c3OB2O)c2ccc(P(=O)(O)O)cc2)c1=O (single isomer, unassigned) [Example 181] has a reported EC50 of 50 to 250 µM

Looking up O=C1CC[C@@H](C(=O)NC(C(=O)N[C@H]2Cc3cccc(C(=O)O)c3OB2O)c2ccc(P(=O)(O)O)cc2)N1 (stereo partly shown) [Example 64] , I see its EC50 listed as 50 to 250 µM

So for O=C(NCCCN1CCN(C(=O)NC(C(=O)N[C@H]2Cc3ccc(F)c(C(=O)O)c3OB2O)c2cc(F)c(O)c(O)c2Cl)C(=O)C1=O)c1c(F)cc(O)cc1Cl (stereo partly shown) [Example 421] , the logged EC50 turned out to be < 10 µM

For record O=C(NCCCN1CCN(C(=O)NC(C(=O)N[C@H]2Cc3ccc(F)c(C(=O)O)c3OB2O)c2cc(F)c(O)c(O)c2Cl)C(=O)C1=O)c1ccncc1Cl (stereo partly shown) [Example 295] the listed EC50 is < 10 µM

Form: molecule = O=C(NCCCN1CCN(C(=O)NC(C(=O)N[C@H]2Cc3ccc(F)c(C(=O)O)c3OB2O)c2cc(F)c(O)c(O)c2Cl)C(=O)C1=O)c1c(F)cncc1Cl (stereo partly shown) [Example 403] ; EC50 = < 10 µM

get_value(item= O=C(O)c1c(F)ccc2c1OB(O)[C@@H](NC(=O)C(NC(=O)N1CCN(C3CCN(C(=O)c4cncc(O)c4)CC3)C(=O)C1=O)c1cc(F)c(O)c(O)c1Cl)C2 (stereo partly shown) [Example 425] , readout=EC50) returns < 10 µM

* * *

target: UniProt D0C8Z9; test: Bocillin-FL competition binding via gel filtration, A. baumannii PBP2
Sequence (D0C8Z9 whole entry): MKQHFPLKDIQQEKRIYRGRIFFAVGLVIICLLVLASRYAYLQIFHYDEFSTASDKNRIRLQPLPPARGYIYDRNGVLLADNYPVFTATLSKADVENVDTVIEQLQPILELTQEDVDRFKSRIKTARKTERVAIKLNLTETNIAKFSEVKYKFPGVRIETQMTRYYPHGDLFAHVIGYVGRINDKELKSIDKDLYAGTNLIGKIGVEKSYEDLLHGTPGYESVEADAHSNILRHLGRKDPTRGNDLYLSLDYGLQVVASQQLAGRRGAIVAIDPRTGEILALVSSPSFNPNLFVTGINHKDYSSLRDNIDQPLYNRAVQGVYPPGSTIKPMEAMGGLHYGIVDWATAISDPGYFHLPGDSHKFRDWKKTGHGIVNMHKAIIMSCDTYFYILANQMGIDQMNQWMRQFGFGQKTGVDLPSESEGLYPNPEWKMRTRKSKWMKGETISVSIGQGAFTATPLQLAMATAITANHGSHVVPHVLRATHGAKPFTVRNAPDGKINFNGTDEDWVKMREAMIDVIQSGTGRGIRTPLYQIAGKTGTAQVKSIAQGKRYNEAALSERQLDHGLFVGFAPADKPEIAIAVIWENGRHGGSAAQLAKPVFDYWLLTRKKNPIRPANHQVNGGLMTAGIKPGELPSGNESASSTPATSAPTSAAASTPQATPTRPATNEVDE
Below, each entry is listed with its recorded EC50.

Some entries whose results are on file:
MOLECULE	TARGET_DESC	EC50
O=C(O)c1c(F)ccc2c1OB(O)[C@@H](NC(=O)[C@H](NC(=O)N1CCN(C3CCN(C(=O)c4ccc(F)c(O)c4F)CC3)C1=O)c1cc(F)c(O)c(O)c1Cl)C2 (single isomer, unassigned)	UniProt D0C8Z9	< 10 µM
O=C(NCCS(=O)(=O)N1CCN(C(=O)N[C@@H](C(=O)N[C@H]2Cc3ccc(F)c(C(=O)O)c3OB2O)c2ccc(P(=O)(O)O)cc2)C1=O)c1ccc(O)c(O)c1Cl (single isomer, unassigned)	UniProt D0C8Z9	< 10 µM
O=C(NCCCN1CCN(C(=O)NC(C(=O)N[C@H]2Cc3ccc(F)c(C(=O)O)c3OB2O)c2cc(F)c(O)c(O)c2Cl)C1=O)Nc1cccnc1 (stereo partly shown)	UniProt D0C8Z9	< 10 µM

Let's switch to this molecule now.
EC50 for O=C(NCCCN1CCN(C(=O)NC(C(=O)N[C@H]2Cc3ccc(F)c(C(=O)O)c3OB2O)c2cc(F)c(O)c(O)c2Cl)C1=O)Nc1ccncc1 (stereo partly shown) is 10 to 50 µM

* * *

A collection of compounds and their measured EC50
Biological target: A. baumannii PBP1a (Acinetobacter baumannii)
Sequence (A0ABX6CK30 1-851): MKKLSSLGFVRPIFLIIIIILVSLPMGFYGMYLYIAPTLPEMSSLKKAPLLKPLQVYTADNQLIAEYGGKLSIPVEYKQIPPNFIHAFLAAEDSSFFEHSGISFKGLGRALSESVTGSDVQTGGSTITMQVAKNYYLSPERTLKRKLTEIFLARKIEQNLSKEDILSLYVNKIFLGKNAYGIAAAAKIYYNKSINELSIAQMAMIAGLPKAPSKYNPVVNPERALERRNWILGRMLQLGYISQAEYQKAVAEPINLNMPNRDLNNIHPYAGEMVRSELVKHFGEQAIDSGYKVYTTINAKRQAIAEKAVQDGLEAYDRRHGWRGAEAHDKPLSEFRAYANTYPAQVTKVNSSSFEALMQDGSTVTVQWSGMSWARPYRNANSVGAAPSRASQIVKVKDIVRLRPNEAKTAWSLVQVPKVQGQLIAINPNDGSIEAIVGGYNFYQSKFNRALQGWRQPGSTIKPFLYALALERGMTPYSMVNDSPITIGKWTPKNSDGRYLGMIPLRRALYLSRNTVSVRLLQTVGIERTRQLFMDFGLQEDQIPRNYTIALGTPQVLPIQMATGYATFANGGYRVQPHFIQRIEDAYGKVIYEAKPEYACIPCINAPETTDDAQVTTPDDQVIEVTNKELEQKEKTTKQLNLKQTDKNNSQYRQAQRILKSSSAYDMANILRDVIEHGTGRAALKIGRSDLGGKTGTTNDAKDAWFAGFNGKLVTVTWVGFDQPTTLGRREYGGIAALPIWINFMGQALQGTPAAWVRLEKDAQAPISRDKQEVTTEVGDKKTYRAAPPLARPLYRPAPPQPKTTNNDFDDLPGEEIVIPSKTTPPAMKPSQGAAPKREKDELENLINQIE
Assay: Bocillin-FL competition binding via gel filtration, A. baumannii PBP1a
Details: competition binding assay using Bocillin-FL via gel filtration; read-out: A. baumannii PBP1a Potency

COMPOUND	RESULT
O=C(O)c1c(F)ccc2c1OB(O)[C@@H](NC(=O)[C@H](NC(=O)N1CCN(Cc3ccc(O)c(O)c3Cl)C(=O)C1=O)c1ccc(P(=O)(O)O)cc1)C2 (single isomer, unassigned)	< 10 µM

get_value(item= "CN(CCN1CCN(C(=O)N[C@@H](C(=O)N[C@H]2Cc3ccc(F)c(C(=O)O)c3OB2O)c2cc(F)c(O)c(O)c2Cl)C(=O)C1=O)Cc1cccnc1" , readout=EC50) returns 10 to 50 µM

EC50 measured on O=C(NCCCS(=O)(=O)N1CCN(C(=O)NC(C(=O)N[C@H]2Cc3ccc(F)c(C(=O)O)c3OB2O)c2cc(F)c(O)c(O)c2Cl)C1=O)c1ccccc1 (stereo partly drawn) = 10 to 50 µM

Origin of values: patent US20240270762A1
